- System: Ly7 DLBCL cells
- protocol notes: Growth inhibition of DLBCL cells, Ly7
- Assay type: cell-based
- run parameters: Table 8; Bcl-6 dependent
- Procedure: 50,000 cells per well were treated for 48 hours with different concentrations of the compounds in 96 well plates, using DMSO as a control. Then, viability was determined with Cell Titer Blue™ (Promega) and growth inhibition was calculated as the percentage of viable cells with respect to cells treated with DMSO alone. GI50 values were determined by dose-response curves. […]
Parameter: GI50. Scope: all listed entries.

Some entries whose results are on file:
[[record]]
molecule = "O=C(O)CCN1C(=O)/C(=C2/C(=O)N(CC(=O)OCc3ccccc3)c3ccc(Br)cc32)SC1=S [Compound 2101]"
metric_name = "GI50"
result_value = "> 30 µM"

[[record]]
molecule = "O=C(O)CCN1C(=O)/C(=C2/C(=O)N(CC(=O)OCc3ccccc3)c3ccc(Cl)cc32)SC1=S [Compound 2099]"
metric_name = "GI50"
result_value = "> 30 µM"

[[record]]
molecule = "O=C(O)CCN1C(=O)/C(=C2/C(=O)N(CC(=O)OCc3ccccc3)c3ccc(F)cc32)SC1=S [Compound 2097]"
metric_name = "GI50"
result_value = "> 30 µM"

[[record]]
molecule = "O=C(CN1C(=O)C(=O)c2cc(F)ccc21)OCc1ccccc1 [Compound 2073]"
metric_name = "GI50"
result_value = "36 µM"


Kindly consider the entry below.
Sample O=C(CN1C(=O)C(=O)c2cc(Cl)ccc21)OCc1ccccc1 [Compound 2071] ; GI50 observed: 26 µM

The measured values listed here are drawn from patent US9943506B2.
